TESTED_ON: NADPH oxidase 5 (Homo sapiens) (UniProt Q96PH1)
Sequence (Q96PH1 whole entry, looked up): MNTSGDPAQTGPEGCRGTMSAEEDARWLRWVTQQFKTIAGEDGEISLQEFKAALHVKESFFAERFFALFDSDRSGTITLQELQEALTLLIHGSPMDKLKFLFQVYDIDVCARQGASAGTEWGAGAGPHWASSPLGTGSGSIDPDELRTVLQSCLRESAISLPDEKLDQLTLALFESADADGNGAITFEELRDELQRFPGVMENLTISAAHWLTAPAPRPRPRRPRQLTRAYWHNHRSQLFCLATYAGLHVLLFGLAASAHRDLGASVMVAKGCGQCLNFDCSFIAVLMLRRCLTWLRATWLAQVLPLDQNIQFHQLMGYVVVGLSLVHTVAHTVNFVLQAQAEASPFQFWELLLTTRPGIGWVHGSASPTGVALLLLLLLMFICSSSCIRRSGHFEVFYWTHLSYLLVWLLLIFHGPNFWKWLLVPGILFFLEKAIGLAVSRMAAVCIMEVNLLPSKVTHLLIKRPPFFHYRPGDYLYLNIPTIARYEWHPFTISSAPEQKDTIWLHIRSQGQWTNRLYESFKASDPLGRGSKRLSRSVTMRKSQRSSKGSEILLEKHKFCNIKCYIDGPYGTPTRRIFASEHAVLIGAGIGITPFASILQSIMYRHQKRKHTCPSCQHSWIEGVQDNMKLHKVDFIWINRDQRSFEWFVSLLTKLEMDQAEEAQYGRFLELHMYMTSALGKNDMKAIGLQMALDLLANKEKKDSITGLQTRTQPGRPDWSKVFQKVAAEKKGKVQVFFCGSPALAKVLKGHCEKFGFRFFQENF
TEST_METHOD_NOTES: compounds shifting NOX5 Amplex Red fluorescence – cell-based, HEK293-NOX5, NOX inhibitor project, primary screen (AID 1161)
EXPERIMENTAL_PARAMETERS: HEK293-NOX5, ionomycin, 45 min, higher = more signal
This listing pairs molecules with measured z-score.
ENDPOINT: z-score

MOLECULE | TESTED_ON | MEASURED_VALUE
Cc1ccc(S[C@]2(C(=O)NCc3ccccc3)CC(=O)N(Cc3ccccc3C(F)(F)F)[C@@H]2c2ccc(CO)cc2)cc1 | NADPH oxidase 5 (Homo sapiens) (UniProt Q96PH1) | -0.3
COC(=O)C[C@H]1O[C@@]2(C[C@@H]1[Si](C)(C)C)C(=O)N(C)c1ccccc12 | NADPH oxidase 5 (Homo sapiens) (UniProt Q96PH1) | 1.21
COC(=O)C1(Cc2ccccc2)C=C2C(=C(C)C(=O)C2C)CN1 (stereo unspecified) | NADPH oxidase 5 (Homo sapiens) (UniProt Q96PH1) | -4
CC(C)NC(=O)[C@@]1(C)c2ccccc2C(=O)N(Cc2ccccc2)[C@H]1c1ccc(CO)cc1 | NADPH oxidase 5 (Homo sapiens) (UniProt Q96PH1) | 0.872
CC1CC/C=C\[C@H]2OC34C=CCN(c5ccc(Cl)cc5)C(=O)[C@H]3N(CCCCCCO)C(=O)[C@]4(C)C2C(=O)O1 (stereo partly specified) | NADPH oxidase 5 (Homo sapiens) (UniProt Q96PH1) | 1.98
C=CC[C@]1(C(=O)NCC(O)CO)COC(c2ccc(OCCCO)cc2)=N1 (stereo partly specified) | NADPH oxidase 5 (Homo sapiens) (UniProt Q96PH1) | 0.462
COc1ccc(NN2C(C(O)c3ccc(I)cc3)C=CC3C(=O)N(C4CCCCC4)C(=O)C32)cc1 (stereo unspecified) | NADPH oxidase 5 (Homo sapiens) (UniProt Q96PH1) | -1.16
O=C1N(Cc2ccccc2)c2ccccc2C[C@@]12COC(c1ccc(OCCCO)cc1)=N2 | NADPH oxidase 5 (Homo sapiens) (UniProt Q96PH1) | -1.79
COc1ccc([Si](C)(C)[C@@H]2[C@@H](CC(=O)N(CCO)Cc3ccccc3)O[C@]3(C(=O)N(Cc4ccc(I)cc4)c4ccccc43)[C@H]2C)cc1 | NADPH oxidase 5 (Homo sapiens) (UniProt Q96PH1) | 1.55
COc1ccc([Si](C)(C)[C@@H]2[C@@H](CC(=O)N3CCC[C@H]3CO)O[C@]3(C(=O)N(Cc4ccc(N5CCOC5=O)cc4)c4ccccc43)[C@H]2C)cc1 | NADPH oxidase 5 (Homo sapiens) (UniProt Q96PH1) | 3.85
O=C(NCc1ccccc1)[C@@H]1c2ccccc2C(=O)N(Cc2ccc(OC(F)(F)F)cc2)[C@H]1c1ccc(CO)cc1 | NADPH oxidase 5 (Homo sapiens) (UniProt Q96PH1) | 0.401
CCN(CC)c1ccc(N2CC=CC34O[C@@H]5C=CCCOC(=O)C5[C@H]3C(=O)N(C(C)CO)[C@@H]4C2=O)cc1 (stereo partly specified) | NADPH oxidase 5 (Homo sapiens) (UniProt Q96PH1) | 0.772
CCCC=C(CCC)[C@@H](NC(=O)OCC(C)C)c1ccc(C(=O)OC)cc1 | NADPH oxidase 5 (Homo sapiens) (UniProt Q96PH1) | 1.97
CC(C)NC(=O)[C@@H]1c2ccccc2C(=O)N(Cc2ccc(OC(F)(F)F)cc2)[C@H]1c1ccc(CO)cc1 | NADPH oxidase 5 (Homo sapiens) (UniProt Q96PH1) | 1.87
[N-]=[N+]=Nc1ccccc1[C@@H]1OC(c2ccc(OCCCO)cc2)=N[C@]1(CCS(=O)(=O)c1ccccc1)C(=O)NCC(O)CO (stereo partly specified) | NADPH oxidase 5 (Homo sapiens) (UniProt Q96PH1) | -1.16
COC(=O)[C@]1(CCC(=O)OC(C)(C)C)N=C(c2ccc(OCCCO)cc2)O[C@@H]1c1ccccc1N=[N+]=[N-] | NADPH oxidase 5 (Homo sapiens) (UniProt Q96PH1) | -2.4
